- Test system: serum glucose
- PROTOCOL SUMMARY: Hypoglycemic activity in alanine-induced mice (percent lowering of serum glucose; ED50)
- Format: in vivo, male Swiss-Webster mice
- MEASUREMENT PARAMETERS: Mus musculus, ip, 1 h; 50% reduction in serum glucose vs control animals; read-out: ED50 (amount required to obtain a 50% reduction in serum glucose as compared to the control animals)
ENDPOINT: ED50

>>> result("O=C(O)c1ccc(NCc2ccc(Br)s2)cc1")
"4.6 mg/kg"
>>> result("O=C(O)c1ccc(NCc2ccc(Cl)cc2)cc1")
"11 mg/kg"
>>> result("Cc1ccc(CNc2ccc(C(=O)O)cc2)cc1")
"15 mg/kg"
>>> result("CCc1ccc(CNc2ccc(C(=O)O)cc2)cc1")
"15 mg/kg"
